Source: BindingDB's records for doi:10.1016/j.bmcl.2021.128422

biological target: Maltase-glucoamylase (Homo sapiens)
Sequence (O43451 whole entry): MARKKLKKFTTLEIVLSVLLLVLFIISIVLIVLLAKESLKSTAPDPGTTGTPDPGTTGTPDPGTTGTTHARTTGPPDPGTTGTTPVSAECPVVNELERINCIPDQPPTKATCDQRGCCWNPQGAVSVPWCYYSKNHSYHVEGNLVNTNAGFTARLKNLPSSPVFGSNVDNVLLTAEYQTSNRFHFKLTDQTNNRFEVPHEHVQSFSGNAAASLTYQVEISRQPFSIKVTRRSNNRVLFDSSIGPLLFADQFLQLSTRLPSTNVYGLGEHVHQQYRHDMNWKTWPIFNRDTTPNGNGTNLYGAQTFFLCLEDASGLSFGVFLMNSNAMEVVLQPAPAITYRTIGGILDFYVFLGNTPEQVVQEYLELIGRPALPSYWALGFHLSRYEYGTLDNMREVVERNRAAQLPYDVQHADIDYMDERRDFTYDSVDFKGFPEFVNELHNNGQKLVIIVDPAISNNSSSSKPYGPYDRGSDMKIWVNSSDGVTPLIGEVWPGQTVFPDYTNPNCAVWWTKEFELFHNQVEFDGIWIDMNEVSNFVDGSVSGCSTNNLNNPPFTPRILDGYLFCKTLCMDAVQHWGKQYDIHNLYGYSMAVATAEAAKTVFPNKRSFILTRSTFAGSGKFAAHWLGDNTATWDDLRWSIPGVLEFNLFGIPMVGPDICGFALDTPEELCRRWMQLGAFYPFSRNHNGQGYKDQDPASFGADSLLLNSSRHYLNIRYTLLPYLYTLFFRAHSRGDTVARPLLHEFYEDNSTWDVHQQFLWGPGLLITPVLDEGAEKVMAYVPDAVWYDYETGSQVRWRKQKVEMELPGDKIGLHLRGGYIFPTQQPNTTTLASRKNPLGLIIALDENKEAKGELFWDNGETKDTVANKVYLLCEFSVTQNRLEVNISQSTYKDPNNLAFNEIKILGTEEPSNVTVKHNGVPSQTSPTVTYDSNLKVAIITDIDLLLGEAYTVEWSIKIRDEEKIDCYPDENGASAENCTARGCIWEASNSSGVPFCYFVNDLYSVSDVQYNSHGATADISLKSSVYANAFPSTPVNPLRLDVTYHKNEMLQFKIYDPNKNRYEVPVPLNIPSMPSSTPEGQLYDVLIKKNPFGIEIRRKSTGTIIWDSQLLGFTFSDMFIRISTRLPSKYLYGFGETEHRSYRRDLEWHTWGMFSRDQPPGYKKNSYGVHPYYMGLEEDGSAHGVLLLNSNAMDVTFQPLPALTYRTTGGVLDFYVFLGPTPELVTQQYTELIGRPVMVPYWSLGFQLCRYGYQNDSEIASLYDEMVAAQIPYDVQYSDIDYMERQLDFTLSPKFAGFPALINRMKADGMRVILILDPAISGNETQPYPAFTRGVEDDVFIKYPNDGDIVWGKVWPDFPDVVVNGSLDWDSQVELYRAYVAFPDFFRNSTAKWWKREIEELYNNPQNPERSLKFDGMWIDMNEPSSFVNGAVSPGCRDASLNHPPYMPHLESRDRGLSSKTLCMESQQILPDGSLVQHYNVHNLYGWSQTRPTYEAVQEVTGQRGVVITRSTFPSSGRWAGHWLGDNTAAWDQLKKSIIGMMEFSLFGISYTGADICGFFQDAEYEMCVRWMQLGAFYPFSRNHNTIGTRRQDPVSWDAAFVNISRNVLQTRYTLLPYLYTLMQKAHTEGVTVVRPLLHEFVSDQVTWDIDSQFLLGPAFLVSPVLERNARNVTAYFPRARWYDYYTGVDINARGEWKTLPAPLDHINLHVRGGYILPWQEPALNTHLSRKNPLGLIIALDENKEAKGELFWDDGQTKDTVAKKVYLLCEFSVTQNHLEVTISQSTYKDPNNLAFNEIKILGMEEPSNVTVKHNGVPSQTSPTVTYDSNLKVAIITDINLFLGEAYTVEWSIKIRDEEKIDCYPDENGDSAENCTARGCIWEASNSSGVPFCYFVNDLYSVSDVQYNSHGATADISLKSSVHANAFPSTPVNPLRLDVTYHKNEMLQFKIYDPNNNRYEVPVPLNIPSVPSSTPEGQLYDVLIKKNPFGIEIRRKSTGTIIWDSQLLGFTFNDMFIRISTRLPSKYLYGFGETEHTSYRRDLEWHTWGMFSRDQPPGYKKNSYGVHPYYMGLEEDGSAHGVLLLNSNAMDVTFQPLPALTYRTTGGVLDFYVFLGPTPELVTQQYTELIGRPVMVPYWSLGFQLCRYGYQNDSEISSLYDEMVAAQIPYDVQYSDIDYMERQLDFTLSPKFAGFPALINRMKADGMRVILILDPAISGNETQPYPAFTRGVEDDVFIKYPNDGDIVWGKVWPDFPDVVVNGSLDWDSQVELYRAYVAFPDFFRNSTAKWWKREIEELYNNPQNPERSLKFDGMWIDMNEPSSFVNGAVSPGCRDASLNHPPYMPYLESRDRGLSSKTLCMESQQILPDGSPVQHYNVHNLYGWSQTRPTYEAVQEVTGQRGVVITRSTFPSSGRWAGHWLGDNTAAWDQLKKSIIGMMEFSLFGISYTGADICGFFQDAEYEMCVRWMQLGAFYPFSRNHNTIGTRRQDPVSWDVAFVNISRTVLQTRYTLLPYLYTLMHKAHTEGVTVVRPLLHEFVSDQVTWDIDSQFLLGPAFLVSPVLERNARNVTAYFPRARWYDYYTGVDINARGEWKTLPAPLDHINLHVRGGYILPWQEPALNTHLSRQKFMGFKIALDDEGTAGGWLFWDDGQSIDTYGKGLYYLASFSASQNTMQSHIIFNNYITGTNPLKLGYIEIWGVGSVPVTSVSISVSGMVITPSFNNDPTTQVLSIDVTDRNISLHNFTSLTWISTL
parameter_measured: IC50

C=C1C(=O)O[C@@H]2/C=C(\C)CC/C=C(\C)C[C@@H](OC(=O)/C(=C/CO)CO)[C@@H]12: > 28 µM
C=C1C(=O)O[C@@H]2/C=C(\C)C[C@H](O)/C=C(\C)C[C@@H](OC(=O)/C(=C\C)COC(C)=O)[C@@H]12: > 25 µM
C=C1C(=O)O[C@@H]2/C=C(\C)CC/C=C(\CO)C[C@@H](OC(=O)/C(C)=C/C)[C@@H]12: > 25 µM

// each listed compound needs a value for IC50
1. O=c1c(O)c(-c2ccc(O)c(O)c2)oc2cc(O)cc(O)c12
2. C=C1C(=O)O[C@@H]2/C=C(\C)CC/C=C(\C)C[C@@H](OC(=O)/C(=C\C)CO)[C@@H]12

Key:
10.8 µM
> 29 µM
